All figures here come from patent US10399940B2.

- SYSTEM_NAME: F508delCFTR (Homo sapiens, UniProt P13569, DEL508-508)
- Construct: expressed in transfected cells; host or cells: CFBE41o- (human lung derived epithelial cell line), doxycycline-inducible expression
- Sequence (P13569 with tags, fused parts or gaps DEL508-508): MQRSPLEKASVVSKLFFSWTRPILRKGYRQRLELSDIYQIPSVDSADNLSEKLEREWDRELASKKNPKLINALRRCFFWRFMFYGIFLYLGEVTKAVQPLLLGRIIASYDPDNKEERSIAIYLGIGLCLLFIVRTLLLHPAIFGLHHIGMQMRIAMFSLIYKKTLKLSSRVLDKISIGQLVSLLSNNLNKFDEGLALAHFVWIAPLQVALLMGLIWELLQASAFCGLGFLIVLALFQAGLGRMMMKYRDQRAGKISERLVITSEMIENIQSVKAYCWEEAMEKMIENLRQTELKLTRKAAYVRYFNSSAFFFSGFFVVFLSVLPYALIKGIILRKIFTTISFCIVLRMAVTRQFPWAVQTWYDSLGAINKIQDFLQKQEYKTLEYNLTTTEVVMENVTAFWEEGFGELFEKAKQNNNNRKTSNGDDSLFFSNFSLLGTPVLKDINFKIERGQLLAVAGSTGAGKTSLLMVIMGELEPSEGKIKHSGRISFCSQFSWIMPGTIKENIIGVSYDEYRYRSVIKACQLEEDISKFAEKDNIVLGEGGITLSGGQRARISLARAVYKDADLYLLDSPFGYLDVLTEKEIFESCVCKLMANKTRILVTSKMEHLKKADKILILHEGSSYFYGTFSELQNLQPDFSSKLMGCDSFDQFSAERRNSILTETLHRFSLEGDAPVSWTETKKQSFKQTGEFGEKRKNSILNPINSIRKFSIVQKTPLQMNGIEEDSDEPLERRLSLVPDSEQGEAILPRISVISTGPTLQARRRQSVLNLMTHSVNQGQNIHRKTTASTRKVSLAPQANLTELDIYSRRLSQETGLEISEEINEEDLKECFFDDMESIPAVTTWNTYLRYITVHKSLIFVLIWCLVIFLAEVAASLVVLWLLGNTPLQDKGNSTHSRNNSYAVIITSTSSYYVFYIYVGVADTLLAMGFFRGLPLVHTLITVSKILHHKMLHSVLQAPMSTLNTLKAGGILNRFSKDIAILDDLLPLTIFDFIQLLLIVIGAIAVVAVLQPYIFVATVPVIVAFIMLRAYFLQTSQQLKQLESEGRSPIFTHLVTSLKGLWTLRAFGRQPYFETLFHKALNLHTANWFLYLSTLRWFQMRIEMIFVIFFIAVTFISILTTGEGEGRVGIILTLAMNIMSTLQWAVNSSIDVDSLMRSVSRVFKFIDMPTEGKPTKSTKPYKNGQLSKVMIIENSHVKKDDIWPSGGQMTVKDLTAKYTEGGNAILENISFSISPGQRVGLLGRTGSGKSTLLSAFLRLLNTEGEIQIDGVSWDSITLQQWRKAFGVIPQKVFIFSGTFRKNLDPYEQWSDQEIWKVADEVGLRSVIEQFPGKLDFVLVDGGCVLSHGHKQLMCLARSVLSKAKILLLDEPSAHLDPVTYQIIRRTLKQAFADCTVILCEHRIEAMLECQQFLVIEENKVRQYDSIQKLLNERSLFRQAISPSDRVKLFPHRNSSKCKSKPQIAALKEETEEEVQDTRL
- PROTOCOL_DETAILS: Cell Surface Expression-Horse Radish Peroxidase (CSE-HRP) assay;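 further: % of on-plate positive control (2 µM of the co-corrector compound) after DMSO subtraction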
- Type: cell-based
- TEST_CONDITIONS: CFBE41o-F508delCFTR-HRP cells; with co-corrector (2 μM); normalized to on-plate positive control; highest concentration 20 μM
QUANTITY_KIND: Maximum % activity (with co-corrector)

COMPOUND: COc1ncc(C(F)(F)F)cc1CO[C@H]1[C@H](C(C)(C)C)[C@@H](C(=O)O)N(C(=O)[C@@H]2CCCCO2)[C@H]1c1ccccc1-c1ccccc1Cl [Example 200]
Maximum % activity (with co-corrector): +++ (≥350)

COMPOUND: COc1ccc(C2(C)CCC2)cc1CO[C@H]1[C@H](C(C)(C)C)[C@@H](C(=O)O)N(C(=O)OC(C)C)[C@H]1c1cccnc1OC(C)C [Example 246]
Maximum % activity (with co-corrector): +++ (≥350)

COMPOUND: COc1ncc(C(F)(F)F)cc1CO[C@H]1[C@H](C(C)(C)C)[C@@H](C(=O)O)N(C(=O)C2CCCCC2)[C@H]1c1ccccc1 [Example 41]
Maximum % activity (with co-corrector): +++ (≥350)

COMPOUND: COc1ccc(C(F)(F)F)cc1CO[C@H]1[C@H](C(C)(C)C)[C@@H](C(=O)O)N(C(=O)[C@@H]2CCC[C@@H](OC)C2)[C@H]1c1ccccc1 [Example 31]
Maximum % activity (with co-corrector): +++ (≥350)

COMPOUND: COc1nc(C(C)(C)C)ccc1CO[C@H]1[C@H](C(C)(C)C)[C@@H](C(=O)O)N(C(=O)C2CCCCC2)[C@H]1c1cccnc1OC(C)C [Example 291]
Maximum % activity (with co-corrector): +++ (≥350)

Q: Maximum % activity (with co-corrector) lookup needed for COc1ncc(C(F)(F)F)cc1CO[C@H]1[C@H](C(C)(C)C)[C@@H](C(=O)O)N(C(=O)[C@@H]2CCCCO2)[C@H]1c1ccccc1-c1ccc(C#N)cc1 [Example 207] , thanks.
Ans: +++ (≥350)

Q: Maximum % activity (with co-corrector) lookup needed for COc1nc2c(C)cc(C)cc2cc1CO[C@H]1[C@H](C(C)(C)C)[C@@H](C(=O)O)N(C(=O)[C@@H]2CCCCO2)[C@H]1c1ccccc1C [Example 242] , thanks.
Ans: +++ (≥350)

Q: Maximum % activity (with co-corrector) lookup needed for COc1ncc(C(F)(F)F)cc1CO[C@H]1[C@H](C(C)(C)C)[C@@H](C(=O)O)N(C(=O)[C@@H]2CCCCO2)[C@H]1c1ccccc1-c1ccccc1F [Example 204] , thanks.
Ans: +++ (≥350)

Q: Maximum % activity (with co-corrector) lookup needed for CCc1ccccc1[C@H]1[C@@H](OCc2cc(C(F)(F)F)cnc2OC)[C@H](C(C)(C)C)[C@@H](C(=O)O)N1C(=O)[C@@H]1CCCCO1 [Example 179] , thanks.
Ans: +++ (≥350)

Q: Maximum % activity (with co-corrector) lookup needed for COc1ncc(C(F)(F)F)cc1CO[C@H]1[C@H](C(C)(C)C)[C@@H](C(=O)O)N(C(=O)[C@@H]2CCCCO2)[C@H]1c1ccccc1C1=CCN(C)CC1 [Example 192] , thanks.
Ans: ++ (≥150 and <350)

Q: Maximum % activity (with co-corrector) lookup needed for COc1ncc(C(F)(F)F)cc1CO[C@@H]1[C@H](C(C)(C)C)[C@@H](C(=O)O)N(C(=O)C2CCCCC2)[C@H]1c1cccnc1OC(C)C [Example 164] , thanks.
Ans: + (<150)

Q: Maximum % activity (with co-corrector) lookup needed for COc1nc2ccccc2cc1CO[C@H]1[C@H](C(C)(C)C)[C@@H](C(=O)O)N(C(=O)OC(C)C)[C@H]1c1ccccc1C1CC1 [Example 143] , thanks.
Ans: +++ (≥350)

Q: Maximum % activity (with co-corrector) lookup needed for COc1ncc(C(F)(F)F)cc1CO[C@H]1[C@H](C(C)(C)C)[C@@H](C(=O)O)N(C(=O)[C@H]2CCOC2)[C@H]1c1ccccc1C(C)C [Example 109] , thanks.
Ans: ++ (≥150 and <350)

Q: Maximum % activity (with co-corrector) lookup needed for COc1ncc(C(F)(F)F)cc1CO[C@H]1[C@H](C(C)(C)C)[C@@H](C(=O)O)N(C(=O)[C@@H]2CCCCO2)[C@H]1c1ccccc1C1CC1 [Example 128] , thanks.
Ans: +++ (≥350)

Q: Maximum % activity (with co-corrector) lookup needed for COc1nc2cc(C)ccc2cc1CO[C@H]1[C@H](C(C)(C)C)[C@@H](C(=O)O)N(C(=O)[C@@H]2CCCCO2)[C@H]1c1ccccc1C [Example 220] , thanks.
Ans: +++ (≥350)

Q: Maximum % activity (with co-corrector) lookup needed for COc1ncc(C2CC2)cc1CO[C@H]1[C@H](C(C)(C)C)[C@@H](C(=O)O)N(C(=O)[C@@H]2CCCCO2)[C@H]1c1ccccc1C [Example 217] , thanks.
Ans: +++ (≥350)

Q: Maximum % activity (with co-corrector) lookup needed for COc1ncc(C2CCC2)cc1CO[C@H]1[C@H](C(C)(C)C)[C@@H](C(=O)O)N(C(=O)C2CCCCC2)[C@H]1c1ccccc1F [Example 56] , thanks.
Ans: +++ (≥350)

Q: Maximum % activity (with co-corrector) lookup needed for COc1ncc(C(F)(F)F)cc1CO[C@H]1[C@H](C(C)(C)C)[C@@H](C(=O)O)N(C(=O)OC(C)C)[C@H]1c1ccccc1Cl [Example 99] , thanks.
Ans: +++ (≥350)

Q: Maximum % activity (with co-corrector) lookup needed for COc1ncc(C(F)(F)F)cc1CO[C@H]1[C@H](C(C)(C)C)[C@@H](C(=O)O)N(C(=O)[C@@H]2CCCO2)[C@H]1c1cccc(Br)c1 [Example 118] , thanks.
Ans: +++ (≥350)

Q: Maximum % activity (with co-corrector) lookup needed for COc1ncc(C(F)(F)F)cc1CO[C@H]1[C@H](C(C)(C)C)[C@@H](C(=O)O)N(C(=O)[C@@H]2CCCO2)[C@H]1c1ccccc1C(C)C [Example 98] , thanks.
Ans: +++ (≥350)
